methodDescription: growth modulation of vineyard yeast isolate – strain RM11-1a, OD600, basal, 24 h, primary screen (AID 1177);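 note: cultures grown under basal conditions with no added stressor; test concentration not given here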
conditionDescription: S. cerevisiae RM11-1a growth, OD600, 24 h; higher = more signal, called active from +8 up or from −8 down
Respond with 1.0 for z-score values of 0.6 and above, 0.0 for values below.

Query: Hi team, for `CCOC(=O)C[C@H]1[C@H](OC(=O)c2ccc(C(=O)c3ccccc3)cc2)[C@@H](NC(=O)c2ccc3ccccc3n2)c2cc(OCCCO)ccc2N1C(=O)Cc1ccc(OC)cc1` , is the recorded z-score at or above 0.6?
Response: 0.0

Next, consider the following compound.
Query: z-score >= 0.6 for `CCOC(=O)C[C@H]1[C@H](OC(=O)Cc2ccc3c(c2)OCO3)[C@@H](NC(=O)c2ccc3ccccc3n2)c2cc(OCCCO)ccc2N1C(=O)c1ccc2ccccc2n1` ?
Response: 0.0
